# Tested on: MS2 coat protein
# Assay Details: apparent KD of MS2 coat protein; designed switch direction (-1 OFF switch, 1 ON switch): -1; higher = weaker reporter binding
# Condition Context: Eterna round: R95; input ligand: none
Provide the reported apparent KD of MS2 coat protein of each item.
Numbers only, in nM.

Some sequences with recorded apparent KD of MS2 coat protein:
AUAAUAAAGGAGGAUAUCGUAACGGAAACGUUACGAGAAGGUCUAACAUGAGGAUCACCCAUGUUCCUCAAAUA [Mat - Exclusion 6 - Eli Mod - D50] (puzzle: Exclusion 6)
47
AAAAAGCGAGGAUAUGCAUAAGGACCCGGGCGGGAAGUCGGACAUGAGGAUCACCCAUGUAGAAGGCGCAAAAA [Exclss2-V] (puzzle: Exclusion 2)
14.4
UUAUACGGUGAGGAUAUCUCCACUAAAGUGUGAAGAGAAGGCGCUACAUGAGGAUCACCCAUGUCUAUGGGCAG [Ex-6 Malc#16] (puzzle: Exclusion 6)
320

Query block: For the sequence shown here, AGUACUAACACGAAAGUGUUAGUACAAUAAGCUAGUGGAACAUGAGGAUCACCCAUGUCCUCAUUAGCUCGUCUUAG [Mat - Sensor v3 - Turn-off var 2 - D35] (puzzle: Sensor v3, turn-off variant 2) , give the reported apparent KD of MS2 coat protein.
Result block: 15.1
